Reported GI50 for target or system NCI-H460 lung, by entry.

{"Smiles structure": "Cc1ccc(-c2nc(N3CCNCC3)c3oc(-c4ccc(C)cc4)nc3n2)cc1", "Test target": "NCI-H460 lung", "GI50": "2.03 µM"}
{"Smiles structure": "Cc1cc(Nc2ccc(C)c(Cl)c2)n2nc(C(F)(F)F)nc2n1", "Test target": "NCI-H460 lung", "GI50": "20.9 µM"}
{"Smiles structure": "CCOC(=O)n1cc(C2=C(c3ccc(OC)c(OC)c3)COC2=O)c2ccccc21", "Test target": "NCI-H460 lung", "GI50": "0.122 µM"}
{"Smiles structure": "Cc1cc2c(cc1C)[n+](=O)c(C(=O)c1ccccc1)c(C(F)F)n2[O-]", "Test target": "NCI-H460 lung", "GI50": "5 µM"}

Moving on to the next molecule.
Entry c1ccc(-c2n(Cc3ccc4ccccc4n3)cc[n+]2Cc2ccc3ccccc3c2)cc1 , tested on NCI-H460 lung, has a reported GI50 of 1.79 µM

###

- System: SK-OV-3 ovarian
- Test name: NCI tumour cell line growth inhibition, 48 h
This listing pairs compounds with measured TGI.

{"Compound": "CCOC(=O)C1=C(C)N(NC(=O)Nc2ccccc2)C2(N)N(NC(=O)Nc3ccccc3)C(C)=C(C(=O)OCC)C12C(=O)OCC (centres undefined)", "Reading": "> 100 µM"}
{"Compound": "N#CCCC[Si]12OCCN(CCO1)CCO2", "Reading": "> 100 µM"}
{"Compound": "CC(=O)N[C@@H](Cc1ccc(OP(=O)(O)O)cc1)C(=O)N[C@H]1CCC(=O)N2CCC[C@@H](C(=O)Nc3cccc4ccccc34)N2C1=O", "Reading": "> 25 µM"}

TGI measured on Cc1cn(C2OC(CO[Si](C)(C)C(C)(C)C)C(N(C)O[Si](C)(C)C(C)(C)C)C2[Se]c2ccccc2)c(=O)[nH]c1=O (centres undefined) = > 100 µM

TGI measured on Cc1ccc(Nc2nc(NNC(=O)Cc3ccccc3)nc(NNC(=O)c3ccncc3)n2)cc1 = > 10 µM

TGI measured on COC(=O)c1ccc(Cc2cc(Cc3ccc(C(=O)OC)cc3)cc(Cc3ccc(C(=O)OC)cc3)c2)cc1 = > 25 µM

TGI measured on O=c1[nH]c(-c2ccccc2)nc2cc(Cl)ccc12 = > 100 µM

TGI measured on Cc1nc(-c2nc(C)c(C(=O)NNC(=O)C[n+]3ccccc3)s2)sc1C(=O)NNC(=O)C[n+]1ccccc1 = > 100 µM

TGI measured on O=C1NC2(CCN(CCc3ccccc3)CC2)Oc2ccccc21 = > 100 µM

TGI measured on COc1cc2c(/C=C3/C(=O)Nc4cccc(Cl)c43)c(Cl)[nH]c2cc1C = 5.67 µM

TGI measured on O=S(=O)(O)c1cc(N=Nc2c(O)ccc3ccccc23)cc2c(S(=O)(=O)O)cccc12 = > 100 µM

TGI measured on CO[C@](C(=O)OC[C@H]1[C@@H](COC(C)=O)[C@@H]2O[C@H]1c1cc3c(cc12)OCO3)(c1ccccc1)C(F)(F)F = > 100 µM

###

This listing pairs compounds with measured TGI.
- System: CAKI-1 renal
- Test name: NCI tumour cell line growth inhibition, 48 h

{"Compound": "CC1(C)[C@@H](NOCCCN)CC[C@]2(C)[C@H]3C(=O)C=C4[C@@H]5C[C@](C)(C(=O)O)CC[C@]5(C)CC[C@@]4(C)[C@]3(C)CC[C@@H]12", "Test target": "CAKI-1 renal", "TGI": "6.26 µM"}
{"Compound": "CCOC(=O)/C(=C/c1ccc(OC)cc1)N(CC)CC", "Test target": "CAKI-1 renal", "TGI": "> 100 µM"}

Moving on to the next compound.
Entry CC(=O)OCc1ccc2c(c1)C(O)NC(=O)O2 (stereo not given) , tested on CAKI-1 renal, has a reported TGI of > 100 µM

###

- Tested on: HCT-116 colon
- Test name: NCI tumour cell line growth inhibition, 48 h; in the data active = GI50 below about 0.43 µM; inactive = the rest
Please state which outcome applies, choosing from active, inactive

These recorded examples may help you get a feel for the data.
{"Compound": "CN1CCN(C(=O)COc2ccc(C34CC5CC(CC(C5)C3)C4)cc2)CC1", "Test target": "HCT-116 colon", "Class name": "inactive"}
{"Compound": "OC(c1cc(C(F)(F)F)nc2c(C(F)(F)F)cccc12)C1CCCCN1 (stereo not given)", "Test target": "HCT-116 colon", "Class name": "inactive"}
{"Compound": "COC(=O)/C=C/c1cc(OC(C)=O)c2c(c1)[C@@H](C(=O)OC)[C@H](c1ccc(OC(C)=O)c(OC(C)=O)c1)O2", "Test target": "HCT-116 colon", "Class name": "active"}
{"Compound": "C=C1C[C@H](O)[C@H](Br)C(C)(C)[C@@]12CCC(C)=C(Cl)C2", "Test target": "HCT-116 colon", "Class name": "active"}
{"Compound": "COc1cc2c(cc1OC)-c1cc(OC)c(OC)cc1C(CN(C)C)C2 (stereo not given)", "Test target": "HCT-116 colon", "Class name": "inactive"}

Answer briefly: the call reported for COc1c2ccccc2c(OC)c2[nH]c(=O)ccc12 in this assay. inactive

###

- System: LOX IMVI melanoma
- Test name: NCI tumour cell line growth inhibition, 48 h
Property name: TGI (µM)
All answers are understood in µM, so give the number only.

Reference set (4 entries):
{"Compound": "CCCC/C=C/C=C/C=C/CCCCCCCC(=O)OCC(COC(=O)CCCCCCC/C=C/C1C=CC(CCCC)C(C(=O)O)C1C(=O)O)OC(=O)CCCCCCC/C=C/C=C/C=C/CCCC (stereo not given) (tested in a mixture with another compound)", "Unit spec": "µM", "Reading": 27.5}
{"Compound": "COc1cc2c(cc1OC)C(Cl)C(c1ccc(F)cc1)=C2Cl (stereo not given)", "Unit spec": "µM", "Reading": 27.7}
{"Compound": "O=C1c2c(F)c(F)c(F)c(F)c2C(=O)N1c1ccc(F)cc1F", "Unit spec": "µM", "Reading": 5.11}
{"Compound": "COC(=O)/C=C/c1cc(OC(C)=O)c2c(c1)[C@@H](C(=O)OC)[C@H](c1ccc(OC(C)=O)c(OC(C)=O)c1)O2", "Unit spec": "µM", "Reading": 40.3}

TGI measured on Cc1ccc(S(=O)(=O)N2C3C=CC(C3)[C@@H]2C(Cl)(Cl)Cl)cc1 (stereo not given in full) = 33.2

###

- Tested on: A498 renal
- Test name: NCI tumour cell line growth inhibition, 48 h; in the data active means GI50 below about 0.43 µM; inactive means the rest
Please state which outcome applies, choosing from active, inactive

These recorded examples may help you get a feel for the data.
{"Molecule": "CCOC(=O)n1cc(C2=C(c3ccc(OC)c(OC)c3)COC2=O)c2ccccc21", "Class name": "active"}
{"Molecule": "COC(=O)c1cc2oc(/C=C3/SC(=S)N(NC(C)=O)C3=O)cc2n1C", "Class name": "inactive"}
{"Molecule": "O=C1C(C(Nc2ccccc2)c2ccccc2)=C([O-])c2ccccc21.O=C1C(C(Nc2ccccc2)c2ccccc2)=C([O-])c2ccccc21.[Cu+2] (centres undefined)", "Class name": "inactive"}

Would you kindly look at the next entry?
Answer briefly: the call reported for [O-][Cl+3]([O-])([O-])[O-].[O]=[Ru]=[O].c1ccc(-c2ccccn2)nc1.c1ccc(-c2ccccn2)nc1 in this assay. inactive

###

- Test system: M14 melanoma
- Test name: NCI tumour cell line growth inhibition, 48 h
Property name: TGI

Reference set (10 entries):
{"Compound": "CC(=O)OCCOCNC(=S)N/N=C/c1ccc([N+](=O)[O-])o1", "TGI": "> 100 µM"}
{"Compound": "NCCNCCNCCN", "TGI": "> 100 µM"}
{"Compound": "NC(=S)N/N=C\\c1nccc2c(C(F)(F)F)cccc12", "TGI": "0.706 µM"}
{"Compound": "Br[Se]c1ccccn1", "TGI": "31.7 µM"}
{"Compound": "CCNC(=O)c1ccc(C)c(N=NN(C)C)c1", "TGI": "> 100 µM"}
{"Compound": "CC[C@@H](c1ccc(O)c(O)c1)[C@@H](CC)c1ccc(O)c(O)c1", "TGI": "13.5 µM"}
{"Compound": "CC#Cc1ccc(-c2ccccc2)s1", "TGI": "> 100 µM"}
{"Compound": "COc1ccccc1CC(=O)C(O)(C(F)(F)F)C(F)(F)F", "TGI": "> 100 µM"}
{"Compound": "CC1(C)[C@@H](NOCCCN)CC[C@]2(C)[C@H]3C(=O)C=C4[C@@H]5C[C@](C)(C(=O)O)CC[C@]5(C)CC[C@@]4(C)[C@]3(C)CC[C@@H]12", "TGI": "28.8 µM"}
{"Compound": "O=C(O)C1C2c3ccccc3C(c3ccccc32)C1C(=O)NCC1CC1 (stereo unspecified)", "TGI": "> 100 µM"}

Moving on to the next compound.
TGI measured on C[C@@]1(O)CC[C@]2(C)C3CCCC3[C@H]12 (stereo partly specified) = > 100 µM

From: PubChem BioAssay (NCI)
